- Test system: Saccharomyces cerevisiae
- ASSAY_INFO: protein stability index of tFT-peptide fusion (C-terminal peptide) (PSI (0-1 scale)); higher = more stable (slower turnover)
- EXPERIMENTAL_SETUP: genetic background: das1 deletion; temperature: 37 C
QUANTITY_NAME: protein stability index
// response body must contain only the number

Solved cases (5 shown):
{"SEQUENCE_ENTRY": "DWTVSYLWVTAL", "STUDY_SYSTEM": "Saccharomyces cerevisiae", "TEST_VALUE": 0.599}
{"SEQUENCE_ENTRY": "VFSVTVVFVSVL", "STUDY_SYSTEM": "Saccharomyces cerevisiae", "TEST_VALUE": 0.383}
{"SEQUENCE_ENTRY": "GVLLLGSYQWVG", "STUDY_SYSTEM": "Saccharomyces cerevisiae", "TEST_VALUE": 0.334}
{"SEQUENCE_ENTRY": "RKRKKISEIIAI", "STUDY_SYSTEM": "Saccharomyces cerevisiae", "TEST_VALUE": 0.69}
{"SEQUENCE_ENTRY": "RDGAHFLLILVC", "STUDY_SYSTEM": "Saccharomyces cerevisiae", "TEST_VALUE": 0.254}

Lookup result for `RFLVVVRFYWRC` ; measured protein stability index: 0.441

Lookup result for `LGFFPSPVLCVF` ; measured protein stability index: 0.209

Lookup result for `WIGCTVKIASLY` ; measured protein stability index: 0.693

Lookup result for `VELRNCYLLVKA` ; measured protein stability index: 0.381

Lookup result for `GLSGFLLLIVLY` ; measured protein stability index: 0.417

Lookup result for `PVKGTMIKAKNT` ; measured protein stability index: 0.71

Lookup result for `PLFPLLGLLFFF` ; measured protein stability index: 0.592

Lookup result for `SVLAIWLTVTLK` ; measured protein stability index: 0.197

Lookup result for `VYFPRLLVRVSW` ; measured protein stability index: 0.508

Lookup result for `LFRGVWYYFLVR` ; measured protein stability index: 0.61

Lookup result for `RWRLWVGWWVVG` ; measured protein stability index: 0.601

Lookup result for `GLPRASPLPIPV` ; measured protein stability index: 0.602

Lookup result for `YLGLSAVAILWM` ; measured protein stability index: 0.563

Lookup result for `YLVFSLCSYRFL` ; measured protein stability index: 0.653

Lookup result for `PVWLFLVRAIKG` ; measured protein stability index: 0.512

Lookup result for `FCHFSSLVSVSL` ; measured protein stability index: 0.638

Lookup result for `VRSELHINSFIH` ; measured protein stability index: 0.741

Lookup result for `SFVVVFTFFFGC` ; measured protein stability index: 0.408

Lookup result for `LLRLPLLALLFV` ; measured protein stability index: 0.356

Lookup result for `FVSSLLPLLTLL` ; measured protein stability index: 0.694

* * *

- Test system: Saccharomyces cerevisiae
- ASSAY_INFO: protein stability index of tFT-peptide fusion in wild type (PSI (0-1 scale)); higher = more stable (slower turnover)
- EXPERIMENTAL_SETUP: genetic background: wild type
Recorded protein stability index, one value per entry.
// response body must contain only the number

Solved cases (5 shown):
{"SEQUENCE_ENTRY": "ARWRVGLWCGAS", "protein stability index": 0.567}
{"SEQUENCE_ENTRY": "AITLPMCPLLPR", "protein stability index": 0.667}
{"SEQUENCE_ENTRY": "GLYMCSVGCPFR", "protein stability index": 0.642}
{"SEQUENCE_ENTRY": "LVNYLSCVACIN", "protein stability index": 0.0691}
{"SEQUENCE_ENTRY": "ESLAASFWRVVG", "protein stability index": 0.136}

Turning now to a further record.
Lookup result for `RVTRLHAIYFRI` ; measured protein stability index: 0.172

* * *

Recorded protein stability index, one value per entry.
- Test system: Saccharomyces cerevisiae
- ASSAY_INFO: protein stability index of tFT-peptide fusion (C-terminal peptide) (PSI (0-1 scale)); higher = more stable (slower turnover)
- EXPERIMENTAL_SETUP: genetic background: das1 deletion; temperature: 30 C
// response body must contain only the number

Solved cases (6 shown):
{"SEQUENCE_ENTRY": "INGIIDPSELSD [ALO1 C-terminal 12 aa]", "TEST_VALUE": 0.69}
{"SEQUENCE_ENTRY": "PCYSDAPPRFMC [YER152W-A C-terminal 12 aa]", "TEST_VALUE": 0.701}
{"SEQUENCE_ENTRY": "LELEFNSHFELK [HNT3 C-terminal 12 aa]", "TEST_VALUE": 0.69}
{"SEQUENCE_ENTRY": "DGPGLNNFGITL [BMT2 C-terminal 12 aa]", "TEST_VALUE": 0.698}
{"SEQUENCE_ENTRY": "DKKLEEQLRDLV [MTC3 C-terminal 12 aa]", "TEST_VALUE": 0.687}
{"SEQUENCE_ENTRY": "SVHLDQLLDGKE [CSI2 C-terminal 12 aa]", "TEST_VALUE": 0.714}

Saccharomyces cerevisiae data for ALSADGIYTIAN [PAU5 C-terminal 12 aa] ; its protein stability index: 0.71

Saccharomyces cerevisiae data for EGEHEQVLENFQ [GUT1 C-terminal 12 aa] ; its protein stability index: 0.702

Saccharomyces cerevisiae data for LGEYIEEMNIRS [YBP2 C-terminal 12 aa] ; its protein stability index: 0.714

* * *

- Test system: Saccharomyces cerevisiae
- ASSAY_INFO: protein stability index of tFT-peptide fusion (C-terminal peptide) (PSI (0-1 scale)); higher = more stable (slower turnover)
- EXPERIMENTAL_SETUP: genetic background: doa10 deletion; temperature: 30 C
Recorded protein stability index, one value per entry.
// response body must contain only the number

Solved cases (2 shown):
{"SEQUENCE_ENTRY": "FVFCTCSFFFLW", "protein stability index": 0.374}
{"SEQUENCE_ENTRY": "WLWYSPIAFTAL", "protein stability index": 0.11}

Lookup result for `FCHFSSLVSVSL` ; measured protein stability index: 0.494

Lookup result for `FFRAYLQMYVTD` ; measured protein stability index: 0.423

Lookup result for `LWVMVLFFPGCS` ; measured protein stability index: 0.299

* * *

- Tested on: Saccharomyces cerevisiae
- ASSAY_INFO: protein stability index of tFT-peptide fusion (C-terminal peptide) (PSI (0-1 scale)); higher = more stable (slower turnover)
- EXPERIMENTAL_SETUP: genetic background: wild type; temperature: 30 C
QUANTITY_NAME: protein stability index
// response body must contain only the number

Solved cases (5 shown):
{"SEQUENCE_ENTRY": "PRPPRPPRPPLP", "TEST_VALUE": 0.66}
{"SEQUENCE_ENTRY": "GGPPPHHKTRPG", "TEST_VALUE": 0.603}
{"SEQUENCE_ENTRY": "GSTRWGSAEGRG", "TEST_VALUE": 0.662}
{"SEQUENCE_ENTRY": "IRVGVESGSRGR", "TEST_VALUE": 0.728}
{"SEQUENCE_ENTRY": "WGRGYRWRIWDV", "TEST_VALUE": 0.546}

Lookup result for `VCVGCAACIVGV` ; measured protein stability index: 0.636

Lookup result for `LISVWQLDVRSG` ; measured protein stability index: 0.579

Lookup result for `FSHLLPAESPYP` ; measured protein stability index: 0.654

Lookup result for `KNNKNQKELDTK` ; measured protein stability index: 0.677

Lookup result for `FILCFPSLLSSL` ; measured protein stability index: 0.603

Lookup result for `SGRYNIKPEERE` ; measured protein stability index: 0.634

Lookup result for `PSSPPAPLAPHS` ; measured protein stability index: 0.731

Lookup result for `WVVGGVRGVWGA` ; measured protein stability index: 0.729

Lookup result for `LPSPPSSPPLRP` ; measured protein stability index: 0.508

Lookup result for `RSCKSIRGIFVC` ; measured protein stability index: 0.315

* * *

- System: Saccharomyces cerevisiae
- ASSAY_INFO: protein stability index of tFT-peptide fusion (C-terminal peptide) (PSI (0-1 scale)); higher = more stable (slower turnover)
- EXPERIMENTAL_SETUP: genetic background: wild type; temperature: 30 C
# protein stability index >= 0.7 gives met, anything below gives not met

Worked examples, 5 sequences total:
{"SEQUENCE_ENTRY": "VPFPHTHPLLTP", "GROUP_LABEL": "met"}
{"SEQUENCE_ENTRY": "CAEGMCCCRGVG", "GROUP_LABEL": "not met"}
{"SEQUENCE_ENTRY": "PSPPPPPRTFPN", "GROUP_LABEL": "not met"}
{"SEQUENCE_ENTRY": "FMMRPPVSSKVS", "GROUP_LABEL": "not met"}
{"SEQUENCE_ENTRY": "PPPLRLPQSRLP", "GROUP_LABEL": "met"}

Query sequence follows.
Query :: Dear colleague, could you confirm whether `VVRMRPRLFSLY` has protein stability index at or above 0.7?
Result :: not met
